# ASSAY NOTES: Clinical DDI study in healthy adults
# Assay type: in vivo, human
# PARTICULARS: both, human, plasma, oral, 5 mg
MEASURE NAME: AUC(0-t) (ng·h/mL)

{"columns": ["COMPOUND", "RESULT UNIT", "MEASURED NUMBER"],
 "data": [
  ["Cc1cn2nc(-c3cc(=O)n4cc(N5CCNC6(CC6)C5)ccc4n3)cc(C)c2n1 [risdiplam, Risdiplam]", "ng·h/mL", 1250]
]}
